Data credit: ChEMBL document CHEMBL3865840

Parameter pIC50, tested on Cytochrome P450 2C9 (Homo sapiens, UniProt P11712), listed per item.
Sequence (P11712 whole entry): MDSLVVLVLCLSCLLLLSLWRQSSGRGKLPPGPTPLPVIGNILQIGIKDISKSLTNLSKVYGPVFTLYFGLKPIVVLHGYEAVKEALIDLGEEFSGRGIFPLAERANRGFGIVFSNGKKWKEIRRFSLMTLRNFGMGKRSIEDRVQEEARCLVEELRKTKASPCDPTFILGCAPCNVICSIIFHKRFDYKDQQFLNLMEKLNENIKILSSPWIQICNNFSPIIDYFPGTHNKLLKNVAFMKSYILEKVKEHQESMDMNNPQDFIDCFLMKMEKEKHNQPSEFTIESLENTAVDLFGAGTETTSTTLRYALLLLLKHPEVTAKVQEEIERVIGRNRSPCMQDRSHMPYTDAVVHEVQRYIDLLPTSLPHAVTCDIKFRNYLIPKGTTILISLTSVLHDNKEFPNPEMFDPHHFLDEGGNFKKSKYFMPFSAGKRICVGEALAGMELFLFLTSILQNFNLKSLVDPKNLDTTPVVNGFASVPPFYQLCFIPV
pIC50 is a log-scale quantity: -log10 of the concentration expressed in molar.

- Compound: "CC(C)(C)OC(=O)N1CCCC(CCNC(=O)c2cc3cnccc3[nH]2)C1 (racemic)"
  pIC50: 5.47

We next turn to a different compound, shown below.
Record CC(C)(C)OC(=O)N1CCC2(CC1)CC2CNC(=O)c1cc2ccncc2s1 (racemic) : what is its pIC50 with Cytochrome P450 2C9 (Homo sapiens, UniProt P11712)?
5.14

###

Test Target: Cytochrome P450 3A4 (Homo sapiens, UniProt P08684)
Sequence (P08684 whole entry): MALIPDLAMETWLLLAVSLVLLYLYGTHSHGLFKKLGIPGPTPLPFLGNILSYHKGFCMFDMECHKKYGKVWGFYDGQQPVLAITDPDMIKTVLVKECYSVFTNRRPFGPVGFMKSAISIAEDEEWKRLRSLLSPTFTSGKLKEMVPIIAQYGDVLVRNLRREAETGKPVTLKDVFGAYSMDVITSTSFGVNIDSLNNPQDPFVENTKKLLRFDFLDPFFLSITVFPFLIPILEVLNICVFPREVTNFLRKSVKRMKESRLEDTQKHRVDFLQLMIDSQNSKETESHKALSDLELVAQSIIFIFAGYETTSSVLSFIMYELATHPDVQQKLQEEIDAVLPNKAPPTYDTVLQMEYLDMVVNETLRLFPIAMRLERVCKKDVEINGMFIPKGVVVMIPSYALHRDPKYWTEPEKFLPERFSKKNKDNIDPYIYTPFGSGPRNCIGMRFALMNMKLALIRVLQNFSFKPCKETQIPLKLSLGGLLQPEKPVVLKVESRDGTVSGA
Assay Comment: Reversible inhibition of CYP3A4 in human liver microsomes using midazolam as substrate in presence of NADPH by LC-MS/MS analysis
Type: ADME
pIC50: −log10 of the molar value.
Assay Endpoint: pIC50

# lookup: pIC50 of CC1(OC(=O)N2CCC3(CC2)C[C@@H]3CNC(=O)N2Cc3ccncc3C2)COC1
< 5.00
